Biological target: Hck (UniProt P08631)
Sequence (P08631 whole entry, looked up): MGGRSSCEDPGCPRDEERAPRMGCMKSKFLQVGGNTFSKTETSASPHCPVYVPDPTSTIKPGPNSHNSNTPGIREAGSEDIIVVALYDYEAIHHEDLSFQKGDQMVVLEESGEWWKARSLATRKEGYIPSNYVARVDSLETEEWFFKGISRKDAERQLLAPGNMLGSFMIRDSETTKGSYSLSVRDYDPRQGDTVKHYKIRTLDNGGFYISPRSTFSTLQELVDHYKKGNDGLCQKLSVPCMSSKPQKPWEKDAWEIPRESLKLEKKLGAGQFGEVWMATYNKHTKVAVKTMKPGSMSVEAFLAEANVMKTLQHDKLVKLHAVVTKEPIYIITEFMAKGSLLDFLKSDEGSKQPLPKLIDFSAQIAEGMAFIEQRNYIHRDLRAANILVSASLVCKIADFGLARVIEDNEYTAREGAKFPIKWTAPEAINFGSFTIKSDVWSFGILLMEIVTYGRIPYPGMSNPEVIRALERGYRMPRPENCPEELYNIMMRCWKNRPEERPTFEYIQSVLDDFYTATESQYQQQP
Test: phosphorylation enrichment, bacterial display (enrichment ratio); higher = better substrate or ligand; peptides without Tyr show the background;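 also: 11-residue human phosphosite peptides and single-mutation variants displayed on the E. coli surface, counted by deep sequencing, each peptide's frequency after selection divided by its frequency in the unselected input library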;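 also: frequency after pTyr selection over input frequency; kinase dosed for 20-30% of maximal phosphorylation in three min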
Listed below: phosphorylation enrichment values for each entry.
REPORTED PROPERTY: phosphorylation enrichment

> print(dat)
            macromolecule.sequence  reported.measurement
1  FLQTDDTSQVS [FRMPD1_Y846_Y846D]                 0.587
2    SVTGTYSPALN [TP53_Y126_C124G]                 0.621
3   VEQIHYIGQNE [HMOX2_Y140_R137Q]                 0.461
4        TTKVSYRASQP [MKI67_Y1737]                 0.326
5     LAIEWYVVVCK [RHO_Y136_R135W]                  1.36
6        NMHSTYAKLAA [SEC22B_Y193]                 0.948
7  DPASAYADEVK [ETNPPL_Y189_S185P]                 0.557
8          ASLLPYFPAIM [IPO4_Y518]                 0.484
9        WRVIGYHVVVW [ATP13A2_Y50]                 0.568

###

Biological target: EPHB1 (UniProt P54762)
Sequence (P54762 whole entry, looked up): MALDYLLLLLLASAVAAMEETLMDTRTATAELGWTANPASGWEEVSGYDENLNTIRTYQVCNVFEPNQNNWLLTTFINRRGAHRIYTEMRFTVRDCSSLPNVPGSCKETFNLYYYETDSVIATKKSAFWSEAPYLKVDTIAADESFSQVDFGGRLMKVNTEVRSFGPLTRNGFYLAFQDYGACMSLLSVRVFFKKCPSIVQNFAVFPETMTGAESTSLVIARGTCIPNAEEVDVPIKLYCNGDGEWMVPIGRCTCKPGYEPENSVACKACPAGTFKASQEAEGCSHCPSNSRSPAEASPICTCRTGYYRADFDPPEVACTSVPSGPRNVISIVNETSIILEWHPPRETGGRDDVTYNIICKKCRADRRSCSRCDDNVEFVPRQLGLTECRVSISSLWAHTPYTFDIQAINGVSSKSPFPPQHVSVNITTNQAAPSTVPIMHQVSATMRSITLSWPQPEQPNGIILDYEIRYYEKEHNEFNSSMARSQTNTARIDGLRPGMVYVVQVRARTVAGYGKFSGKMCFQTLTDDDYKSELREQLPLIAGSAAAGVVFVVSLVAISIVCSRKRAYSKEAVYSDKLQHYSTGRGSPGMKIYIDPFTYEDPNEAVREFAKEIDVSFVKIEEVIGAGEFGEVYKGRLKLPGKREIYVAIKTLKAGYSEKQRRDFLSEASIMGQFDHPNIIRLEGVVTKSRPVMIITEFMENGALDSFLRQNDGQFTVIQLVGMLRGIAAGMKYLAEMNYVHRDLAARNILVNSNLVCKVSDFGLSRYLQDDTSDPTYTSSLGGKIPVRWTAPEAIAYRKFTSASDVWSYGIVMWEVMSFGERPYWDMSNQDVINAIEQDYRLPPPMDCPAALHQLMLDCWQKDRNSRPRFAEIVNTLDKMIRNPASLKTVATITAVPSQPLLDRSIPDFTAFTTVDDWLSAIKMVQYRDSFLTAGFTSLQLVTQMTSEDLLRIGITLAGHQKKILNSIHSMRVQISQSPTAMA
Assay: phosphorylation enrichment, bacterial display (enrichment ratio); higher = better substrate or ligand; peptides without Tyr show the background
Give rule met when the value for phosphorylation enrichment is at least 0.7. Give rule not met when it is less.

> print(dat)
               macromolecule.sequence   label.class
 1       VKPENYRRLDV [VHL_Y175_I180V]  rule not met
 2           VGIMLYGVDSR [PKD1_Y3143]  rule not met
 3         METKGYQSLPE [NR3C2_Y6_H7Q]  rule not met
 4           DSNPIYSQIWS [FCRL3_Y662]      rule met
 5  LLNAIYLSAKR [SERPING1_Y294_W299R]  rule not met
 6           SAEEDYMADAK [KCNT1_Y876]      rule met
 7       RSSKTYLKTRS [LPL_Y329_M328T]  rule not met
 8   KKFVPYFDLFM [IPO5_Y530_E525K_YF]      rule met
 9            HRTLVYGGIFL [FBP1_Y259]  rule not met
10            TPLSAYQIPRT [GAB2_Y324]  rule not met
11    NDTAGYFVIGG [SEL1L3_Y399_I401V]  rule not met
12      DWWQEYVLNES [TGM1_Y267_R264W]      rule met
13   CTTNHYNFMCN [TP53_Y234_I232N_YF]  rule not met
14        KMKGDYFRFLA [YWHAG_Y130_YF]      rule met
15         RELGEYALAEY [ALDH1A3_Y492]      rule met
16            AEEKEYHAEGG [EGFR_Y869]  rule not met
17         VRVQLYDPDYM [CYP4A22_Y100]      rule met
18        GIADDYDKKKP [EIF1_Y54_L59P]  rule not met
19     TRGLEYIVPLM [CLCN4_Y548_G544R]      rule met
20    SLAARYYNWVC [FLT4_Y1230_S1235C]      rule met
21     EERKTYVNTML [TEK_Y1102_T1106M]  rule not met
22     LHAALYKRKLL [TTLL5_Y542_E543K]  rule not met
23      YPKARYRWLVL [APTX_Y214_H215R]  rule not met
24    PYTDPYYDYEI [ZC3H18_Y371_A368T]      rule met
25   DFFDLYGGEKL [PTPN11_Y66_F71L_YF]      rule met
26            HYECKYVINAI [MAOA_Y268]      rule met
27  HNLPIYEGFAL [ACTA1_Y168_V165L_YF]      rule met
28         RGFDTYFGFLL [ARSB_Y165_YF]      rule met
29          TTKVSYRASQP [MKI67_Y1737]  rule not met
30       PSDSGYSFETI [MAP1B_Y1921_YF]  rule not met
31            YKGKKYKPLDL [RPL35_Y78]  rule not met
32      KPPPSYESEEE [BRD4_Y599_T598S]  rule not met
33  KFVKMCDNHQL [MYO9A_Y203_Y203C_YF]  rule not met
34      KASRKYYAMKI [AKT3_Y173_G171R]  rule not met
35        HDRNTYEKYLE [TF_Y666_G671E]  rule not met
36     ELTSVYGSRAR [SENP1_Y349_D350G]  rule not met
37         AFLQTYSHEVS [PCDHGA5_Y753]  rule not met
38     SQAPGYSFTAA [CYCS_Y47_G42S_YF]  rule not met
